- assayed-target: T1, human neonatal Fc receptor (hFcRn) (human, UniProt P55899 24-290; P61769 21-119)
- T1 construct: Biotinylated in the ELISA, Octet and yeast assays; also called human FcRn; huFcRn
- T1 sequence (P55899 24-290 limits assumed, chain 1 of 2): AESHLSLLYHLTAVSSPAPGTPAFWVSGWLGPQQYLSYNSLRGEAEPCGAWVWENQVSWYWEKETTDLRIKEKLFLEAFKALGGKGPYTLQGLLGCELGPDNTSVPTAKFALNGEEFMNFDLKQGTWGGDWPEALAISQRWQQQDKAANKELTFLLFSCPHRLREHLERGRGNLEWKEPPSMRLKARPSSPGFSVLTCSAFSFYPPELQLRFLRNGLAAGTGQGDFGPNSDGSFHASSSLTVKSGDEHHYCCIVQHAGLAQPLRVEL
- T1 sequence (P61769 21-119 limits assumed, chain 2 of 2): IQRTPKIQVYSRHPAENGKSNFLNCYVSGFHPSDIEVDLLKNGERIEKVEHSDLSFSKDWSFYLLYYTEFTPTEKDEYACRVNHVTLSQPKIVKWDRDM
- protocol-summary: phage ELISA pH 6;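 further: higher score means stronger binding and above about 3 to 5 exceeds background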
parameter: ELISA score

Inquiry: Note down ELISA score recorded for L6B isolate with insertion SEQ ID NO: 469 (other) EPKSCDKTHTCPPCPAPELLGGPSVFLFPPKPKDTLMISRTPEVTCVVVDVSHEDPEVKFNWYVDGVEVHNAKTKPREEQYNSTYRVVSVLTVLHQDWLNGKEYKCKVSNKALPAPIEKTISKAKGQPREPQVYTLPPSRDELGGCEMMKNKSGCGGTKNQVSLTCLVKGFYPSDIAVEWESNGQPENNYKTTPPVLDSDGSFFLYSKLTVDKSRWQQGNVFSCSVMHEALHNHYTQKSLSLSPGK
Reply text: 43.2

Inquiry: Input L5 isolate with insertion SEQ ID NO: 446 (other) EPKSCDKTHTCPPCPAPELLGGPSVFLFPPKPKDTLMISRTPEVTCVVVDVSHEDPEVKFNWYVDGVEVHNAKTKPREEQYNSTYRVVSVLTVLHQDWLNGKEYKCKVSNKALPAPIEKTISKAKGQPREPQVYTLPPSRDELTKNQVSLTCLVKGFYPSDIAVEWESNGGCMHNEEFCGGGQPENNYKTTPPVLDSDGSFFLYSKLTVDKSRWQQGNVFSCSVMHEALHNHYTQKSLSLSPGK , output reported ELISA score.
Reply text: 53.2
